# test.target: T1, human CCR8 (human, UniProt P51685 1-355)
# T1 construct: whole, on cells; construct used for the overexpressing cell lines is not described; also called hCCR8
# T1 sequence (P51685 whole entry): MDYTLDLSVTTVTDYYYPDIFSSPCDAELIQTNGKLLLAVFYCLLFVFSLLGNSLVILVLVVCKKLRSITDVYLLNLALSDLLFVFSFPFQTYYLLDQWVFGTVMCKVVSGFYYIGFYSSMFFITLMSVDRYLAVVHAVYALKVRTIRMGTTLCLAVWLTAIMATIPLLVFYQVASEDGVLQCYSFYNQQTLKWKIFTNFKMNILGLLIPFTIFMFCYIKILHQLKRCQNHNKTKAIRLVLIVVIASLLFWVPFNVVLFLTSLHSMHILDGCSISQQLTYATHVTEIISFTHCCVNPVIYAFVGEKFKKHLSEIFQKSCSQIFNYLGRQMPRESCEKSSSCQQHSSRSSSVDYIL
# assay.explanation: FACS, CHO-K1-hCCR8 cells, Fab
This section presents binders with their documented pEC50 values.
In plain terms, pEC50 is the concentration in mol/L turned into minus its base-10 logarithm.

Examples with answers:
binder: PR005753 (Fab, V domains shown) VH: EVQLVESGGGLVKPGGSLRLSCAASGFTFSTYAMNWVRQAPGKGLEWVGRIRSKSNNYATYYADSVKDRFTISRDDSKSTLYLQMNSLKTEDTAVYYCVRGKEIGNYYAMDFWGQGTTVTVSS VL: DIVMTQSPLSLPVTLGQPASISCRSSKSLLHSNAKIYLYWFQQRPGQSPRLLIYRMSNLASGVPDRFSGSGSGTDFTLKISRVEAEDVGVYYCMQHLEYPLTFGQGTKLEIKR
readout.number: 8.92
--
binder: PR005750 (Fab, V domains shown, Fab form of the same variable region as PR004666) VH: EVQLVESGGGLVKPGGSLRLSCAASGFTFSTYAMNWVRQAPGKGLEWVGRIRSKSNNYATYYADSVKDRFTISRDDSKSTLYLQMNSLKTEDTAVYYCVRGKENANYYAMDFWGQGTTVTVSS VL: DIVMTQSPLSLPVTLGQPASISCRSSKSLLHSNAKIYLYWFQQRPGQSPRLLIYRMSNLASGVPDRFSGSGSGTDFTLKISRVEAEDVGVYYCMQHLEYPLTFGQGTKLEIKR
readout.number: 8.81
--
binder: PR005754 (Fab, V domains shown) VH: EVQLVESGGGLVKPGGSLRLSCAASGFTFSTYAMNWVRQAPGKGLEWVGRIRSKSNYYATYYADSVKDRFTISRDDSKSTLYLQMNSLKTEDTAVYYCVRGKEIGNYYAMDFWGQGTTVTVSS VL: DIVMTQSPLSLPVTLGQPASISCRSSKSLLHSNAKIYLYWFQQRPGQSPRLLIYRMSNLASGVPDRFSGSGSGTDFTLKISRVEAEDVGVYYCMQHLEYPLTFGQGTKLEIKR
readout.number: 9.08
--
binder: PR005751 (Fab, V domains shown) VH: EVQLVESGGGLVKPGGSLRLSCAASGFTFSTYAMNWVRQAPGKGLEWVGRIRSKSNNYATYYADSVKDRFTISRDDSKSTLYLQMNSLKTEDTAVYYCVRGKEHGNYYAMDFWGQGTTVTVSS VL: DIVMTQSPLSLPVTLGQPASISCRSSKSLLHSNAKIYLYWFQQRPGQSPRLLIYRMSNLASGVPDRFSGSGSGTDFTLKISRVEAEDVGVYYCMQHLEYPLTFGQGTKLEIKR
readout.number: 8.96
--
binder: PR005752 (Fab, V domains shown) VH: EVQLVESGGGLVKPGGSLRLSCAASGFTFSTYAMNWVRQAPGKGLEWVGRIRSKSNYYATYYADSVKDRFTISRDDSKSTLYLQMNSLKTEDTAVYYCVRGKEHGNYYAMDFWGQGTTVTVSS VL: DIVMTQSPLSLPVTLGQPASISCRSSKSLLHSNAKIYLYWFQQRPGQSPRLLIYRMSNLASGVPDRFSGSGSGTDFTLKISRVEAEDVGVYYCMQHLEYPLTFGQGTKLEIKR
readout.number: 9.16

Next binder, pEC50 to be filled in.
Please supply the value of reported pEC50 for the item PR005763 (Fab, V domains shown) VH: EVQLVESGGGLVKPGGSLRLSCAASGFTFSTYAMNWVRQAPGKGLEWVGRIRSKSNYYATYYADSVKDRFTISRDDSKSTLYLQMNSLKTEDTAVYYCVRGKEHGKYYAMDFWGQGTTVTVSS VL: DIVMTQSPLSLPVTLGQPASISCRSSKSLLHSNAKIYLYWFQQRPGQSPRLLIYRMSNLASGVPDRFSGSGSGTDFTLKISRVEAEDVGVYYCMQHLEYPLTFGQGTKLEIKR
9.21
